test system: NOMO1; assay: cell viability relative to DMSO control; higher = less cytotoxic; conditions: RPMI 5 mM glucose + 10% dialyzed FBS; 48 h; 0.00702 µM
measure: cell viability (%)
Hi! Could you send only the number? It should be in %, unit omitted.

Use these answered entries as a reference point.
Cl.Cl.Fc1ccc(C(OCCN2CCN(CCCc3ccccc3)CC2)c2ccc(F)cc2)cc1    113
CCOP(=O)(OCC)C(C)NC(=O)N(CCCl)N=O (centres undefined)    138
COC(=O)N[C@H](C(=O)N[C@@H](Cc1ccccc1)[C@@H](O)CN(Cc1ccc(-c2ccccn2)cc1)NC(=O)[C@@H](NC(=O)OC)C(C)(C)C)C(C)(C)C    114

Prompt: Need cell viability of CCCCc1oc2ccc(NS(C)(=O)=O)cc2c1C(=O)c1ccc(OCCCN(CCCC)CCCC)cc1 , thanks.
Response: 102

* * *

The entries below are paired with their reported cell viability.
system: SEM cells; test: cell viability relative to DMSO control; higher = less cytotoxic; conditions: RPMI 5 mM glucose + 10% dialyzed FBS; 48 h; 46.1 µM
Numeric answer only, unit % assumed.

O=C(C1CCCCC1)N1CC(=O)N2CCc3ccccc3C2C1 (stereo not given)    73.1
COc1cc2c(NC3CCN(C(C)C)CC3)nc(C3CCCCC3)nc2cc1OCCCN1CCCC1    32.9
O=C(Oc1ccc([N+](=O)[O-])cc1)N1CCN(Cc2cccc(Oc3ccccc3)c2)CC1    121
NC12CC3CC(CC(C3)C1)C2    107

Now look at this entry.
Prompt: Recorded cell viability for CCOc1ccccc1OCCNC(C)Cc1ccc(OC)c([S+](N)(=O)[O-])c1 (stereo not given) , please?
Response: 114

* * *

tested on: NOMO1; experiment: cell viability relative to DMSO control; higher = less cytotoxic; conditions: HPLM + 10% dialyzed FBS; 48 h; 0.0211 µM
This listing pairs molecules with measured cell viability.
Provide the reading as a plain figure in %.

Illustrative cases are given below, each with its answer.
CNC(=O)c1cc(Oc2ccc(NC(=O)Nc3cc(C(C)(C)C)nn3-c3ccc4ncccc4c3)c(F)c2)ccn1    128
COC1=CC=C2C(=CC=NC2=C1)OC3=CC=C(NC(=O)\C4=C(C)\N(CC(C)(C)O)N(C4=O)C5=CC=CC=C5)C=C3F    115
Cc1ccccc1C(C(=O)NC1CCCCC1)N(C(=O)CNc1ccc(C#N)cc1)c1cccc(F)c1 (stereo not given)    106
O=C(c1ccc(F)cc1)C1CCN(CCn2c(=O)[nH]c3ccccc3c2=O)CC1    128

Consider the record given below.
Prompt: Form entry - test system: NOMO1; read-out: cell viability; molecule: CC1=CC2=C(O1)C(=C3OC(=O)\C=C(C)/C3=C2)C
Response: 114

* * *

tested on: SEM cells; test: cell viability relative to DMSO control; higher = less cytotoxic; conditions: HPLM + 10% dialyzed FBS; 48 h; 0.000781 µM
measure: cell viability (%)
I only need the number, in %, no unit after it.

Worked set:
CCOC(=O)c1ncn2c1CN(C)C(=O)c1cc(F)ccc1-2    78.9
CC1=C(C)C2=C(S1)[N]3C(=NN=C3[C@H](CC(=O)OC(C)(C)C)/N=C2/C4=CC=C(Cl)C=C4)C    98.5
CN(C)CCC=C1C2=C(C=CC=C2)\C=C/C3=C1C=CC=C3    108
NC12CC3CC(CC(C3)C1)C2    45.1

Note: attention shifts to another entry.
Prompt: // cell viability lookup, key: CCCCc1oc2ccc(NS(C)(=O)=O)cc2c1C(=O)c1ccc(OCCCN(CCCC)CCCC)cc1
Response: 62.8

* * *

Entries and their cell viability
system: SEM cells; assay: cell viability relative to DMSO control; higher = less cytotoxic; details: RPMI 5 mM glucose + 10% dialyzed FBS; 48 h; 0.00702 µM

C[C@@]12OC(=O)[C@@]1(NC(=O)[C@@H]2CCCl)[C@@H](O)[C@H]\3CCC\C=C3    91.8%
CN(C)c1ccc(C(=O)NCCCCCCC(=O)NO)cc1    105%
Cn1cc(-c2ccc3ncc(Cc4ccc5ncccc5c4)n3n2)cn1    102%
OC1=C(C=CC=C1)C2=CC=C(C=C2)C3=CSC4=C3C(=C(/C#N)C(=O)N4)/O    124%

Attention now shifts to the item below.
Prompt: Could you share which cell viability value was measured for CCC1=C(C)CN(C(=O)NCCc2ccc(S(=O)(=O)NC(=O)N[C@H]3CC[C@H](C)CC3)cc2)C1=O ?
Response: 101%

* * *

Listed here: items and their measured cell viability.
system: NOMO1; test: cell viability relative to DMSO control; higher = less cytotoxic; conditions: HPLM + 10% dialyzed FBS; 48 h; 0.000781 µM
Only the number, expressed in %, is required.

c1cc(-c2sc(-c3ccncc3)c(-c3ccncc3)c2-c2ccncc2)ccn1    88.1

Prompt: Which cell viability reading was recorded for the compound O=C(C1CCCCC1)N1CC(=O)N2CCc3ccccc3C2C1 (stereo not given) ?
Response: 106

Prompt: Same question for COC1=CC=C2C(=CC=NC2=C1)OC3=CC=C(NC(=O)\C4=C(C)\N(CC(C)(C)O)N(C4=O)C5=CC=CC=C5)C=C3F please.
Response: 124

Prompt: Lookup Cn1c(=O)c2c(ncn2CC(O)CO)n(C)c1=O (stereo not given)
Response: 106

Prompt: Then what about the compound Cc1ccc(F)c(NC(=O)Nc2ccc(-c3cccc4[nH]nc(N)c34)cc2)c1 ?
Response: 91.4

* * *

tested on: NOMO1; test: cell viability relative to DMSO control; higher = less cytotoxic; settings: HPLM + 10% dialyzed FBS; 48 h; 0.0632 µM
measure: cell viability
Output should be the measured figure followed by the unit it is expressed in.

Solved cases below.
N=C(N)c1ccc(OCCCCCOc2ccc(C(=N)N)cc2)cc1    130%
CCc1cc(/C(C)=N/OCc2ccc(C3CCCCC3)c(C(F)(F)F)c2)ccc1CN1CC(C(=O)O)C1    129%
Cc1cnc(Nc2ccc(OCCN3CCCC3)cc2)nc1Nc1cccc([S+](=O)([O-])NC(C)(C)C)c1    117%

Prompt: Record request: cell viability value, item CC1=C2N=C([NH]C2=CC(=C1)N3CCOCC3)\C4=C(NC[C@@H](O)C5=CC=CC(=C5)Cl)\C=C/NC4=O
Response: 98.4%

Prompt: Try the compound c1ccc(-c2nn3c(c2-c2ccnc4cc(OCCN5CCOCC5)ccc24)CCC3)nc1
Response: 133%

Prompt: Proceed to CN1C(=O)COc2c(C(=O)NC3CN4CCC3CC4)cc(Cl)cc21 (centres undefined)
Response: 105%

Prompt: Queued: NC12CC3CC(CC(C3)C1)C2
Response: 138%

Prompt: # repeat for COc1ccc(-c2c(-c3ccc(O)cc3O)n[nH]c2C)cc1
Response: 126%

Prompt: Note, next up: CN(C)[C@H]\1[C@@H]2[C@@H](O)[C@@H]\3C(=C)C4=C(C(=CC=C4)O)C(=O)C3=C(\O)[C@@]2(O)C(=O)\C(=C1O)C(N)=O
Response: 135%

Prompt: CCOc1cc2c(c(F)c1OCC)C(=N)N(CC(=O)c1cc(N3CCOCC3)c(OC)c(C(C)(C)C)c1)C2 , same question.
Response: 115%

Prompt: And CC(=O)SCC(Cc1ccccc1)C(=O)NCC(=O)OCc1ccccc1 (centres undefined) ?
Response: 102%

Prompt: Also check CC1(C)O[C@H]2CC(=O)OC[C@]23[C@H]2CC[C@@]4(C)[C@H](c5ccoc5)OC(=O)[C@H]5O[C@]54[C@]2(C)C(=O)C[C@@H]13
Response: 99.4%

Prompt: Now the compound Nc1ccc([S+](=O)([O-])Nc2ccccn2)cc1
Response: 106%

Prompt: And the next one, CCCCCCCCCCCCCCCC(=O)OC[C@@H](NC(=O)C(Cl)Cl)[C@H](O)c1ccc([N+](=O)[O-])cc1 ?
Response: 118%

Prompt: Let us now turn to O=P(O)(O)C(O)(Cc1cccnc1)P(=O)(O)[O][Na] (centres undefined)
Response: 107%

Prompt: What do you get for Cc1cc(SCc2sc(-c3ccc(C(F)(F)F)c(F)c3)nc2C)ccc1OCC(=O)O ?
Response: 114%

Prompt: Repeat for the following compound: C[C@@H]1CN(CC(=O)N2CC(C)(C)c3ncc(Cc4ccc(F)cc4)cc32)[C@@H](CN2CCOC[C@H]2C)CN1
Response: 129%

Prompt: Same for C[Se]CCC(N)C(=O)O (centres undefined)
Response: 99.3%

Prompt: Also need CC1OC(OC/2=C(/OC3=C(C(=CC(=C3)O)O)C2=O)C4=CC=C(O)C=C4)C(O)C(OC(C)=O)C1OC(C)=O (centres undefined) , thanks.
Response: 111%

Prompt: Moving on to CNC(=O)c1cc(Oc2ccc(NC(=O)Nc3cc(C(C)(C)C)nn3-c3ccc4ncccc4c3)c(F)c2)ccn1
Response: 127%

Prompt: Another compound to check: CCOC(=O)c1ncn2c1CN(C)C(=O)c1cc(F)ccc1-2
Response: 123%
